# system-under-test: T1, FcγRIIB (form not stated) (UniProt P31994 43-217, limits assumed)
# T1 construct: also called FcγRIIB (ELISA)
# T1 sequence (looked up): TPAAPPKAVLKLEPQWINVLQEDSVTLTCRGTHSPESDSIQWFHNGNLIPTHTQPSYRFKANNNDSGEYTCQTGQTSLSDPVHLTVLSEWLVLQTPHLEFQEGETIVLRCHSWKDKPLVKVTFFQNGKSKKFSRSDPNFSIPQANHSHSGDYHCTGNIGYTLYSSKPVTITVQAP
# procedure-text: ELISA

- binder: "ch4-4-20 K334E, T359N, T366S (antibody) heavy: ASTKGPSVFPLAPSSKSTSGGTAALGCLVKDYFPEPVTVSWNSGALTSGVHTFPAVLQSSGLYSLSSVVTVPSSSLGTQTYICNVNHKPSNTKVDKKVEPKSCDKTHTCPPCPAPELLGGPSVFLFPPKPKDTLMISRTPEVTCVVVDVSHEDPEVKFNWYVDGVEVHNAKTKPREEQYNSTYRVVSVLTVLHQDWLNGKEYKCKVSNKALPAPIEETISKAKGQPREPQVYTLPPSRDELNKNQVSLSCLVKGFYPSDIAVEWESNGQPENNYKTTPPVLDSDGSFFLYSKLTVDKSRWQQGNVFSCSVMHEALHNHYTQKSLSLSPGK"
  binding result: "binds"
- binder: "ch4-4-20 D280E, S354F, A431D, L441I (antibody) heavy: ASTKGPSVFPLAPSSKSTSGGTAALGCLVKDYFPEPVTVSWNSGALTSGVHTFPAVLQSSGLYSLSSVVTVPSSSLGTQTYICNVNHKPSNTKVDKKVEPKSCDKTHTCPPCPAPELLGGPSVFLFPPKPKDTLMISRTPEVTCVVVDVSHEDPEVKFNWYVEGVEVHNAKTKPREEQYNSTYRVVSVLTVLHQDWLNGKEYKCKVSNKALPAPIEKTISKAKGQPREPQVYTLPPFRDELTKNQVSLTCLVKGFYPSDIAVEWESNGQPENNYKTTPPVLDSDGSFFLYSKLTVDKSRWQQGNVFSCSVMHEDLHNHYTQKSISLSPGK"
  binding result: "binds"
